- Method summary: yeast display, Sf9 membrane polyspecificity reagent, FACS + sequencing; frameworks hold sequencing errors
Readout name: polyreactivity (PSR sort gate)

Sample records with polyreactivity (PSR sort gate):
Sequence | polyreactivity (PSR sort gate)
QVQLVESGGGLVQAGGRLRLSCAASGSTFDPNAEGWYRPAPGKARELVAVIDSGDGTTYYADSVKGRVTISRDKAKNTVYLQMNSLKPEDTAVYYCAAEFHWWYAGYDYGYWGQGTQVTVSS | low polyreactivity
QVQLVESGGGLVQAGGSLRLSCAASGFTFWAYAMGWYRPAPGKERELVARISGSGGRTYYADSVKGRFTISRDNAKNTVYLQMNSLKPEDTAVYYCAARRYYYPVGYDYWGEGTQVTVSS | high polyreactivity
QVQLVESGGGLVQAGGSLRLSCAASGSTFYVNAMGSYRQAPGQERELVAAIRSSAGNTTYADSVKGRFTISRDNAKNTVYLQMNSLKPEETAVYYCAADSRPYLRDYWGQGTQVTVSS | low polyreactivity
QVQLVESGGGLVQAGGSLRLSCAASGFTFIYAMGWYRQAPGTERELVAAITRSGGSTYYADSVKGRFTISRDNAKNTVYLQMNSLKPEDTAVYYCAAEAVIYYSSYFEYYYWGQGTQVTVSS | high polyreactivity

Q: Please list polyreactivity (PSR sort gate) recorded for the sequence `QVQLVESGGGLVQAGGSLRLSCAASGITFKFYAMGWYRQAPGKERELVAAIDSRGGSTYYADSVKGRFTISRDNAKNTVYLQMNSLKPEDTSVYYCNKVGRRKLDYWGQGTQVTVSS`
Result: high polyreactivity

###

- Method summary: yeast display, Sf9 membrane polyspecificity reagent, FACS + sequencing; frameworks hold sequencing errors
Readout name: polyreactivity (PSR sort gate)

Reference set (5 entries):
Sequence | polyreactivity (PSR sort gate)
QVQLVESGGGLVQAGGSLRLSCAASGRTFLVNAMGWYRQAPGKEREFVAAITSRSGRTNYADSVKGRFTISRDNAKNTVYLEMNSLKPEDTAVYYCNAEGYTVKYWYSRYDYWGQGTQVTVSS | high polyreactivity
QVQLVESGGGLVQAGGSLRLSCAASGGIFPHYVMGWYRQAPGKERELVAAITWSGGRTYYADSVKGRFTISRDNAKNTVYLQMNSMKPEDTAVYYCAADPFYLTKSGGWGDYWGQGTQVTVSS | low polyreactivity
QVQLVESGGGLVQAGGSLRLSCAASGLTFYYNAMGWYRQAPGKERELVAAISRSGGSTYYADSVKGRFTISRDNAKNTVYLQMNSLEPEDTAVYYCAAALRKEYDYWGQGTQVTVSS | high polyreactivity
QVKLVESGGGLVQAGGSLRLSCAASGLTFATYAMGWYREAPGKERELVAAISYSGDSTYYADSVKGRFTISRDNAKNTVYLQMNSLKPEDTAVYYCAKRLKRYRSSYKTFKLDYWGQGTQVTVSS | high polyreactivity
QVQLVESGGGLVQAGGSLRLRCAASGISFRRNVMGWCRQAPGKERELVARISRAGSTKYADSVKGRFTISRDTAKNTVYLQMTSLKPEDTAVYYCNKVTRRNGQPYDYWGQGTQVTVSS | high polyreactivity

Q: Tell me measured polyreactivity (PSR sort gate) for `QVQLVESGGGLVQAGGRLRLSCAASGFTFRAFTMGWYRQAPGKERELVAAITYSGGRTYYADSVKGRFTISRDNAKNTVYLQMNSLKPEDTAVYYCAKRGWALSEYYYWGQGTQVTVSS` please.
Result: high polyreactivity

Q: Return value of polyreactivity (PSR sort gate) for input `QVQLVESGGGLVQAGGSLRLSCAASGSILDTNAMGWYRQAPGKERELVARIDIDGSTNYADSVKGRFTISRDNAKNTVYLQMNSLKPEDTAVYYCAADAERHAPKFTYGTYDYWGQGTQVTVSS` , no commentary.
Result: low polyreactivity

Q: For the sequence `QVQLQESGGGLVQAGGSLRLSCAASGTILYSLGMGWYRQAPGKRREFVASITWGTTTNYAESVKGRFTISRDNAKNTVYPQMNSLKPEDTAVYDCAAPPFGDSSYHYWGQGTQVTVSS` , give its reported polyreactivity (PSR sort gate).
Result: low polyreactivity

Q: Note down polyreactivity (PSR sort gate) recorded for `QVQLVESGGGLVQAGGSLRLSCAASGSTFYIYAMGWYRQAPGKERELVAVITRRGGSTSYADSVKGRFTISRDNAKNTVYLQMNSLKPEDTAVYYCAAKRTWPDVKYIRYGYWGQGAQVTVSS`
Result: high polyreactivity

Q: Respond only with polyreactivity (PSR sort gate) recorded for `QVHLVESGGGLVQAGGSLRLSCAASGIIFPSYAMGWYRQAPGKERELVAAIDGSGGITYYADSVKGRFTISRDNAKNTVYLQLNSLKPEDTAVYYCNAEREYYDYGNDDYWGPGTQVTVSS`
Result: low polyreactivity

Q: Give the reported value of polyreactivity (PSR sort gate) for this record: `QVQLQESSGGLVQAGGSLRMSCAASGTNFHFHIMGWYRQAPGKEREFVAAISYGTSTYYADSVKGRFTISRDNAKNTVYLQMNSQKPEDTAVYYCAVYDYLEVYCWYWGQGTQVTVSS`
Result: low polyreactivity
